Tested on: Aerobactin synthetase IucA (Klebsiella pneumoniae, hypervirulent)
Test: IucA enzyme inhibition, biochemical, LOPAC library, absorbance readout (AID 1346212);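 note: 100% = no compound wells and 0% = no enzyme wells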
Conditions: IucA enzyme assay, absorbance (OD) readout; active compounds read low;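 tested at 8 µM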
Calls of active or inactive are those of the source. The rule behind the calls is not given here.
Readout type: remaining activity

compound=NC[C@@H]1O[C@H](O[C@H]2[C@@H](O)[C@H](O[C@@H]3[C@@H](O)[C@H](N)C[C@H](N)[C@H]3O[C@H]3O[C@H](CO)[C@@H](O)[C@H](O)[C@H]3N)O[C@@H]2CO)[C@H](N)[C@@H](O)[C@@H]1O result="104% (inactive)"
compound=CN1CCc2ccccc2Cc2[nH]c3ccccc3c2CC1 result="107% (inactive)"
compound=FC(F)(F)c1cc(CO[C@H]2CCCN[C@H]2c2ccccc2)cc(C(F)(F)F)c1 result="107% (inactive)"
compound=COc1ccc2c(c1O)-c1cccc3c1[C@@H](C2)N(C)CC3 result="102% (inactive)"
compound=Nc1nnc(-c2cccc(Cl)c2Cl)c(N)n1 result="114% (inactive)"
compound=COc1ccc2[nH]cc(CCN)c2c1 result="109% (inactive)"
compound="c1ccc2c(c1)CCCC2C1=NCCN1 (centres undefined)" result="102% (inactive)"
compound=CC12CC3CC(C)(C1)CC(N)(C3)C2 result="92.7% (inactive)"
compound=Nc1ccc(S(=O)(=O)Nc2ccnn2-c2ccccc2)cc1 result="99.3% (inactive)"
